- test-summary: Quantitative highthroughput screen to assess conditional lethalithy of P12 Ichikawa cells grown in Human Plasma-Like Medium with dialyzed fetal bovine serum (HPLM+ds) (AID 1963879); note: nearly all actives have a fitted effect of over 35% in size
- condition-summary: ATP luminescence, 48 h; viability; series mostly up to 45.8 µM
Records with an inconclusive call do not appear. Calls of active or inactive are those of the source. Calls come from the whole dose curve; as a rule, active = well fitted cell-killing curve with a large enough effect; inconclusive = small, poorly fitted or top-dose-only effect; inactive = flat fitted curve, though single readings scatter. Where a SMILES comes first, the peptide text is derived from it. [ ]: non-standard residue; d: D form. The star is where a group is joined. Sta = CC(C)C[C@H](N)[C@@H](O)CC(=O)O; Isovaleryl = CC(C)CC(=O)*
The categories you may choose from are active, inactive

As a guide, the following entries are already answered.
>>> group("Nc1cccc(S(=O)(=O)N2CCCN(S(=O)(=O)c3ccc4c(c3)OCCO4)CC2)c1")
"inactive"
>>> group("CCc1c2c(nc3ccc(O)cc13)-c1cc3c(c(=O)n1C2)COC(=O)[C@]3(O)CC")
"active"
>>> group("C=CC(=O)Nc1cccc(Nc2nc(NC3CCC(N(C)C)CC3)nc3c2ncn3C(C)C)c1 (centres undefined)")
"active"

Now examine the next entry.
Q: Which outcome was entered for the compound CC(C)CC(=O)N[C@H](C(=O)N[C@H](C(=O)N[C@@H](CC(C)C)[C@@H](O)CC(=O)N[C@@H](C)C(=O)N[C@@H](CC(C)C)[C@@H](O)CC(=O)O)C(C)C)C(C)C (Isovaleryl-VV[Sta]A[Sta]-OH) in this test?
Result: inactive
